This collection of values is drawn from the supplement of paper PMC8728848.

Target: Neu5Ac(a2-3)Gal(b1-4)GlcNAc(b1-3)Gal(b1-4)GlcNAc(b1-3)Gal(b1-4)GlcNAc(b1-2)Man(a1-3)[Neu5Ac(a2-3)Gal(b1-4)GlcNAc(b1-3)Gal(b1-4)GlcNAc(b1-3)Gal(b1-4)GlcNAc(b1-2)Man(a1-6)]GalNAc
Test: glycan array binding signal (z-score within array); higher = stronger binding
Conditions: glycan notation: IUPAC condensed, linker removed
The sample as a whole holds a higher share of the strongest signals than the screen did.
// n strictly below 7 in glycan array binding signal (z-score); y otherwise

INSERT INTO measurements (binder, class_name) VALUES
  ('BabA (Helicobacter pylori), O52269_HELPY (protein) AEDDGFYMSAGYQIGEAAQMVKNTKGIQELSDNYENLSNLLTRYSTLNTLIKLSADPSAVNAARENLGASAKNLIGDTKNSPAYQAVLLAINAAVGFWNVVGYVTQCGGNANGQKSTSSTTIFNNEPGYRSTSITCSLNGHMPGYYGPMSIENFKKLNEAYQILQTALKNGLPALKENNGTVNVTYSYTCSGEGNDNCSLQTTGVTNQNNGTKTETQTIDGKSVTTTISSKVVDSQ', 'y'),
  ('Epa20 (Candida glabrata) (protein) MGSSHHHHHHSSGLVPRGSHMASSNIPNNYPLGCSNKYSGHLPGLKMELYSYNYVNPRHPDPQNPGKLDQLYDPNLLGTYECFDSSYKDINYPRVGYKSKTLIGRSDGVSGILNFNFVPPWGCMPQKGQLPPAYNFKSNITLSNFTMILFGYFKPKISGNHIFSLHGDDLIYLNFGAGNAFDCCRQESSADNFGNYQAFSLWGINWEKKTLTVYLDMNTYYPIRIFYNNRDYQAIFNFSFKTEFDSSPVIDFQDYFFFLRDIDGGCPGEV', 'n'),
  ('FliC (Clostridium difficile) (protein) MRVNTNVSALIANNQMGRNVNGQSKSMEKLSSGVRIKRAADDAAGLAISEKMRAQIKGLDQAGRNVQDGISVVQTAEGSLEETGNILQRMRTLSLQSANEINNTEEREKIADELTQLKDEIERISSSTEFNGKKLLDGTSSTIRLQVGASYGTNVSGTSNNNNEIKIQLVNTASIMASAGITTASIGSMKAGGTTGTDAAKTMVSSLDAALKSLNSSRAKLGAQQNRLESTQNNLNNTLENVTAAESRIRDTDVASEMVNLSKMNILVQASQSMLAQANQQPQGVLQLLG', 'n'),
  ('Loc1 (Escherichia coli) (protein) APCALTNVGEQRGTYILKPLSMKGNLTAEKIENTGNIIECTDLQETTNAIKVHFLTQNALKFKVGSRHYIINFPFEYDGKKIELPGKSSYNLEEMLSAINFTIPYSIASVSDSSNTADIFPGTPFPLLFEIEVSSCTGNNTNCNSVRFNYNLNTILQVNLMTHHHHHH', 'n'),
  ('BIp1-His (Cryptococcus neoformans) (protein) MFTKIFVALFAATAVLSAPVESAEKRITHTGRATFYSPSVGIGACGWQNTDEELVVALNAPQYALNADHNCGQSVRITNEQNGNQEIAKVVDLCPGCNDGDLDMSPALFGALNNNDFDQGVFPISWNFLPRDDTSSSN', 'n'),
  ('AFL5 (Aspergillus fumigatus), Q4WB00 (protein) MDNFMEMTKKLGHQPELLRLRALDATYDDALEGKLVVAPLDMSEPGKKILDSGTADGTWLRNVRSKQSVPHDYYGSDVEGELFPKDPDGITYFAHSFKDPWPQQYLGFFDLVHIRGSLAGSAPEGPAPVIQNLTTLLKPGGWVQLMEMNAFSPPPNGPAMTDFAKMASEMFTGIGVGDFANNNKSMLEDAGLKNVQEKRVIVNLGKKAKPELHDQSIHGVTGPIVPLTSVARTVKSSFTGEQLDALPARVKEELETEGGQVEMIIAFGQKA', 'n'),
  ('CBM13 2a (Mycobacterium tuberculosum), P64849 (protein) DGPVQLKSRLGDVCLDAPSGSWFSPLVINPCNGTDFQRWNLTDDRQVESVAFPGECVNIGNALWARLQPCVNWISQHWTVQPDGLVKSDLDACLTVLGGPDPGTWVSTRWCDPNAPDQQWDSVPLEHHHHHH', 'y'),
  ('Als3-41 (Candida albicans) (protein) KTITGVFNSFNSLTWSNAATYNYKGPGTPTWNAVLGWSLDGTSASPGDTFTLNMPCVFKFTTSQTSVDLTAHGVKYATCQFQAGEEFMTFSTLTCTVSNTLTPSIKALGTVTLPLAFNVGGTGSSVDLEDSKCFTAGTNTVTFNDGGKKISINVDFERSNVDPKGYLTDSRVIPSLNKVSTLFVAPQCANGYTSGTMGFANTYGDVQIDCSNIHVGITKGLNDWNYPVSSESFSYTKTCSSNGIFITYKNVPAGYRPFVDAYISATDVNSYTLSYANEYTCAGGYWQRAPFTLRWTGYRNSDAGSNGIVIVATTRTVTDSTTAVTTLPFDPNRDKTKTIEILKPIPTTTITTSYVGVTTSYLTKTAPIGETATVIVD', 'n'),
  ('Pbx1CASH domain (Cryptococcus neoformans) (protein) MDETKPLWGNPRADGISLACKDSIVERNVVYDATDGAIVLFGSAGSTVKNNHVYARTRVILGGINLVDYEPWDGDYTNVKVHHNHLYALGRYFKVGIVIGPASWSDDTESVVHSASVTDNEFSGGYWGYGIVVASAKNFEVLRNKVIWDGEQGVARFSGVPGS', 'n'),
  ('HA-61200 (Pseudomonas aeruginosa), Q02SP8_PSEAB (protein) MNKCYALVWNVSQGCWNVVSEGSRRRGKPAGAKAAIASVLALLGATALAPAYALPSGGTVVGGSANGEIHLSGGNSLSVNQKVDKLIANWDSFSVAAGERVIFNQPSSSSIALNRVIGTKASDIQGRIDANGQVFLVNPNGVLFGRGAQVNVGGLVASTLDITDAEFNGNSSRYRFTGPSTNGVLNHGGAITAAEGGSIALLGAQVDNRGTVLAQMGGVGLGAGSDLTLNFDGNKLLDIRVDAGVANALASNGGLLKADGGRVLMAARTANALLNTVVNSQGAIEARSLRGKNGRIVLDG', 'n');
